Provenance of the data: PubChem BioAssay (EPA / NIEHS)

Tested on: SRY-box transcription factor 17 (SOX17) Protein Expression, Deisenroth Lab, SOX17 (gene 64321)
Experiment: CCTE_Deisenroth_DEVTOX-GLR_Pluri_SOX17: CCTE's DevTox GLR-Pluri Assay Evaluation of SRY-box transcription factor 17 (SOX17) Protein Expression, Deisenroth Lab (AID 2284427)
Records with an inconclusive call do not appear. Calls of active or inactive are those of the source. The calls were made as follows: active = hit-call score of the fitted dose curve at least 0.9, where 1 is the maximum; inconclusive = response in the unintended direction; inactive = score below 0.9.
Answer with one of the outcomes 1 (yes) = active, 0 (no) = inactive

# Compound, Classification
data = [
    ("CC1=C(/C=C/C(C)=C/C=C/C(C)=C\\C(=O)O)C(C)(C)CCC1", "1 (yes)"),
    ("O=C(c1ccc(F)cc1)C1CCN(CCn2c(=O)[nH]c3ccccc3c2=O)CC1", "1 (yes)"),
    ("CN1CCN2c3ccccc3Cc3ccccc3C2C1 (stereo not given)", "1 (yes)"),
    ("Cc1nc2sccn2c(=O)c1CCN1CCC(=C(c2ccc(F)cc2)c2ccc(F)cc2)CC1", "0 (no)"),
]

Pending compound:
Request: In this assay, the call recorded for O=c1[nH]c(=O)n([C@H]2C[C@H](O)[C@@H](CO)O2)cc1Br was what?
Response: 0 (no)

----------
Assay: TOX21_p53_BLA_p2_viability: Viability Assessment in the Tox21 HCT-116 p53 Agonism Beta-lactamase Assay, Phase 2 (AID 2283591);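 also: compound exposure lasted 16 h at 37 °C; actives lower the ATP signal meaning cytotoxicity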
Source text: TOX21_p53_BLA_p2 is a cell-based, single-readout assay that uses HCT116, a human intestinal cell line, […] in a 1536-well plate.TOX21_p53_BLA_p2_viability is an assay readout measuring cellular ATP content and detected with CellTiter-Glo Luciferase-coupled ATP quantitation.TOX21_p53_BLA_p2_viability used a type of viability reporter where loss-of-signal activity can be used to understand changes in the cell viability. […]
Records with an inconclusive call do not appear. The source made the active and inactive calls. How the source made its calls: active means hit-call score of the fitted dose curve at least 0.9, where 1 is the maximum; inconclusive means response in the unintended direction; inactive means score below 0.9.
Answer with one of the outcomes 1 (active), 0 (inactive)

Look over these answered cases.
# Compound, Classification
records = [
    ("CCOC(=O)C1=C(C)NC(C)=C(C(=O)OCC)C1c1ccccc1/C=C/C(=O)OC(C)(C)C", 1),
    ("CCCC(=O)OC(=O)CCC", 0),
    ("CC(NCCC(c1ccccc1)c1ccccc1)c1ccccc1 (stereo not drawn)", 1),
    ("O=C(CCS)OCC(COC(=O)CCS)(COC(=O)CCS)COC(=O)CCS", 0),
    ("CCOC(=O)OCC/C(SC(=O)OCC)=C(\\C)N(C=O)Cc1cnc(C)nc1N", 0),
    ("O=C(CCCN1CCC(C(=O)c2ccc(F)cc2)CC1)c1ccc(F)cc1", 0),
    ("CC(C)=CCC/C(C)=C/CC/C(C)=C/CC/C(C)=C/CC1=C(C)C(=O)c2ccccc2C1=O", 0),
    ("C[C@@H]1O[C@@H](O[C@@H]2[C@@H](O)[C@H](OCCc3ccc(O)c(O)c3)O[C@H](CO[C@@H]3O[C@H](CO)[C@@H](O)[C@H](O)[C@H]3O)[C@H]2OC(=O)/C=C/c2ccc(O)c(O)c2)[C@H](O)[C@H](O)[C@H]1O", 0),
]

Request: In this assay, the call recorded for Oc1ccc(Cl)cc1C1CCCC1 was what?
Response: 0

Request: In this assay, the call recorded for COc1ccc(C(=O)Nc2ccccc2)cc1[N+](=O)[O-] was what?
Response: 0

Request: In this assay, the call recorded for O=C(OC(=O)c1ccccc1)c1ccccc1 was what?
Response: 0

Request: In this assay, the call recorded for CC1=C2[C@H](/C=C(\C)C(=O)O)CC[C@@H](C)[C@H]2CC1 was what?
Response: 0
